targetSystem: Glycogen synthase kinase-3 beta (Homo sapiens)
Sequence (P49841 whole entry): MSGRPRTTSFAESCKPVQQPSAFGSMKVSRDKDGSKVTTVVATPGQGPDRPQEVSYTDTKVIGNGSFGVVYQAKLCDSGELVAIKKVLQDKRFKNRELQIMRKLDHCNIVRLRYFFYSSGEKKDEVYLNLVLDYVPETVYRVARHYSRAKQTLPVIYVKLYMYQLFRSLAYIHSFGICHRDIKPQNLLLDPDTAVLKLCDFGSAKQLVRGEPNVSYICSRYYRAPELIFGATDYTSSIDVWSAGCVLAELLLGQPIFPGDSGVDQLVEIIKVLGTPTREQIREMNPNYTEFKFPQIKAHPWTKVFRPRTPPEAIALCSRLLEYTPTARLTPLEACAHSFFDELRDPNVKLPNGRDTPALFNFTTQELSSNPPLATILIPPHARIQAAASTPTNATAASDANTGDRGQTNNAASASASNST
pIC50: −log10 of the molar value.
This section presents compounds with their documented pIC50 values.
recordedEndpoint: pIC50

testsmiles=Cn1cc(C2=C(c3nnc4ccccn34)C(=O)NC2=O)c2ccccc21 targetsystem="Glycogen synthase kinase-3 beta (Homo sapiens)" experimentalvalue=6.81
testsmiles=O=C1NC(=O)C(c2nnc3ccccn23)=C1c1cn(CCCN2CCOCC2)c2ccccc12 targetsystem="Glycogen synthase kinase-3 beta (Homo sapiens)" experimentalvalue=6.70
testsmiles=CCCCn1cc(C2=C(c3nnc4ccccn34)C(=O)NC2=O)c2ccccc21 targetsystem="Glycogen synthase kinase-3 beta (Homo sapiens)" experimentalvalue=7.16
testsmiles=Cn1cc(C2=C(c3nnc4ccccn34)C(=O)NC2=O)c2ccc(Cl)cc21 targetsystem="Glycogen synthase kinase-3 beta (Homo sapiens)" experimentalvalue=6.80
testsmiles=O=C1NC(=O)C(c2nnc3ccccn23)=C1c1cn(CCCn2ccnc2)c2ccccc12 targetsystem="Glycogen synthase kinase-3 beta (Homo sapiens)" experimentalvalue=7.44
testsmiles=Cn1cc(C2=C(c3nnc4ccccn34)C(=O)NC2=O)c2ccc(F)cc21 targetsystem="Glycogen synthase kinase-3 beta (Homo sapiens)" experimentalvalue=6.69
testsmiles=O=C1NC(=O)C(c2nnc3ccccn23)=C1c1c[nH]c2ccccc12 targetsystem="Glycogen synthase kinase-3 beta (Homo sapiens)" experimentalvalue=6.32
testsmiles=COc1ccc2c(c1)c(C1=C(c3nnc4ccccn34)C(=O)NC1=O)cn2C targetsystem="Glycogen synthase kinase-3 beta (Homo sapiens)" experimentalvalue=6.03
